Please respond with reported z-score for every item in the list.
# Procedure details: E. coli DRC41 culture turbidity changes, primary screen, E. coli filamentation inducer project, strain DRC41, OD650, 48 h (AID 1152);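 further: E. coli MC1000 strain DRC41 lacking acrAB efflux pump and sulA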
# Particulars: E. coli DRC41 (acrAB sulA), higher = more signal, called active from +8 up or from −8 down
Active and inactive are the calls of the source.

Using the record for `COc1ccc(C#Cc2ccc3c(c2)[C@]2(C(=O)N3)[C@H](c3ccc(O)cc3)N3[C@H](c4ccccc4)[C@H](c4ccccc4)OC(=O)[C@H]3[C@@H]2C(=O)N2CCCCCCC2)cc1` , report its z-score.
0.777 (inactive)

Using the record for `CC(C)N1C(=O)c2ccccc2[C@@H](C(=O)NCCCN(C)C)[C@@H]1c1ccc(CO)cc1` , report its z-score.
-0.534 (inactive)

Using the record for `COCCOC(=O)N1C(=O)[C@@]2(c3cc(C#CCNC(N)=O)ccc31)[C@H](C(=O)N1CCc3cc(OC)c(OC)cc3C1)[C@H]1C(=O)O[C@H](c3ccccc3)[C@H](c3ccccc3)N1[C@@H]2c1ccc(OCCO)cc1` , report its z-score.
1.3 (inactive)

Using the record for CC(C)=CCCC(C)=CC(O)C1C=CC2C(=O)N(c3ccccc3)C(=O)C2N1Nc1ccccc1 (configuration not stated) , report its z-score.
-1.8 (inactive)

Using the record for `C[N+](C)(C)CCCCCCNC(=O)[C@H]1C[C@H]2C(=O)N3CCC[C@H]3C(=O)N2[C@H]1c1ccc(O)cc1` , report its z-score.
0.864 (inactive)

Using the record for `CCCNC(=O)[C@@]1(c2ccc([N+](=O)[O-])cc2)CC(=O)N(CC23CC4CC(CC(C4)C2)C3)[C@@H]1c1ccc(CO)cc1` , report its z-score.
-0.0948 (inactive)

Using the record for `COCCOC(=O)N1C(=O)[C@@]2(c3ccccc31)[C@H](c1ccc(O)cc1)N1[C@H](c3ccccc3)[C@H](c3ccccc3)OC(=O)[C@H]1[C@@H]2C(=O)N1CCc2cc(OC)c(OC)cc2C1` , report its z-score.
0.682 (inactive)

Using the record for COc1cc(C(O)C2C=CC3C(=O)N(c4ccccc4)C(=O)C3N2Nc2ccc(C#N)cc2)cc(OC)c1OC (configuration not stated) , report its z-score.
-1.64 (inactive)

Using the record for `COc1ccc([Si](C)(C)[C@H]2[C@H](CCn3cc([C@H](O)c4ccccc4)nn3)O[C@@]3(C(=O)N(Cc4cccc(N5CCC5=O)c4)c4ccccc43)[C@@H]2C)cc1` , report its z-score.
2.02 (inactive)

Using the record for `CC(C)(C)OC(=O)CC[C@]1(C(=O)N2CCCCC2)N=C(c2ccc(OCCCO)cc2)O[C@H]1c1ccccc1N=[N+]=[N-]` , report its z-score.
1.66 (inactive)

Using the record for `CCC[C@@H]1C=C(C(=O)O)[C@H](c2ccc(C)cc2)N1S(=O)(=O)c1ccc(C)cc1` , report its z-score.
-0.75 (inactive)

Using the record for CCCCCN1CC=CC23O[C@@H]4C=CCOC(=O)[C@@H]4[C@H]2C(=O)N(CCCO)[C@@H]3C1=O (some centres not stated) , report its z-score.
3.22 (inactive)

Using the record for O=C1OCCC=C[C@H]2OC34C=CCN(Cc5ccccc5)C(=O)[C@H]3N(CCCCCO)C(=O)[C@@H]4C12 (some centres not stated) , report its z-score.
1.8 (inactive)

Using the record for `O=C/C=C/c1ccc2c(c1)OCO2` , report its z-score.
0.586 (inactive)

Using the record for `COc1ccc(C#Cc2ccc3c(c2)[C@]2(C(=O)N3)[C@H](c3ccc(O)cc3)N3[C@H](c4ccccc4)[C@H](c4ccccc4)OC(=O)[C@H]3[C@@H]2C(=O)NC[C@H](O)c2ccccc2)cc1` , report its z-score.
0.735 (inactive)

Using the record for `O=C1O[C@H](c2ccccc2)[C@H](c2ccccc2)N2[C@H]1[C@@H](C(=O)Nc1nc3ccccc3s1)[C@]1(C(=O)Nc3ccccc31)[C@H]2c1ccc(O)cc1` , report its z-score.
-0.626 (inactive)

Using the record for O=C1OCCC=C[C@H]2OC34C=CCN(Cc5ccccc5)C(=O)[C@H]3N(CCCO)C(=O)[C@@H]4C12 (some centres not stated) , report its z-score.
2.94 (inactive)

Using the record for `NCCCCCNC(=O)[C@H]1C[C@H]2C(=O)NCC(=O)N2[C@H]1c1cccc(OCCO)c1` , report its z-score.
1.5 (inactive)

Using the record for `C=CC[C@@H](OC(=O)Nc1ccc(OC)cc1)c1ccc(O)c2ccccc12` , report its z-score.
0.122 (inactive)

Using the record for `C=CCOC(=O)[C@@H]1[C@H]2C(=O)O[C@H](c3ccccc3)[C@H](c3ccccc3)N2[C@H](c2ccc(OCCOC(=O)[C@@H]3C[C@@H]4C(=O)NCC(=O)N4[C@@H]3c3cccc(OCCO)c3)cc2)[C@@]12C(=O)Nc1ccc(I)cc12` , report its z-score.
-0.407 (inactive)

Using the record for `Cc1ccc(S[C@]2(C(=O)NCc3ccccc3)CC(=O)N(Cc3ccccc3)[C@@H]2c2ccc(CO)cc2)cc1` , report its z-score.
-1.24 (inactive)

Using the record for `Cc1ccc(S[C@]2(C(=O)NCc3ccccc3)CC(=O)N(Cc3ccccc3Cl)[C@@H]2c2ccc(CO)cc2I)cc1` , report its z-score.
0.196 (inactive)

Using the record for `COCCOC(=O)N1C(=O)[C@@]2(c3cc(C#CCC(C(=O)OC)C(=O)OC)ccc31)[C@H](C(=O)N1CCCCCCC1)[C@H]1C(=O)O[C@H](c3ccccc3)[C@H](c3ccccc3)N1[C@@H]2c1ccc(OCCO)cc1` , report its z-score.
0.917 (inactive)

Using the record for `O=C(NCc1ccccc1)[C@]1(CCS(=O)(=O)c2ccccc2)N=C(c2ccc(OCCCO)cc2)O[C@@H]1c1ccccc1` , report its z-score.
0.673 (inactive)

Using the record for `O=c1cccc(C=Cc2ccccc2)o1` , report its z-score.
0.465 (inactive)

Using the record for `CCOC(=O)C[C@H]1[C@H](OC(=O)Cc2ccc3c(c2)OCO3)[C@@H](NC(=O)c2ccc(-c3ccccc3)cc2)c2cc(OCCCO)ccc2N1C(=O)c1ccccc1` , report its z-score.
2.36 (inactive)

Using the record for `[N-]=[N+]=Nc1ccccc1[C@@H]1OC(c2ccc(OCCCO)cc2)=N[C@]1(CCS(=O)(=O)c1ccccc1)C(=O)N1CCOCC1` , report its z-score.
0.325 (inactive)
